This section presents molecules with their documented pIC50 values.
Target: 5-lipoxygenase (Rattus norvegicus, UniProt P12527)
Construct: 20,000x g supernatant from homogenized RBL-1 cells; endogenous in cells
Sequence (P12527 whole entry): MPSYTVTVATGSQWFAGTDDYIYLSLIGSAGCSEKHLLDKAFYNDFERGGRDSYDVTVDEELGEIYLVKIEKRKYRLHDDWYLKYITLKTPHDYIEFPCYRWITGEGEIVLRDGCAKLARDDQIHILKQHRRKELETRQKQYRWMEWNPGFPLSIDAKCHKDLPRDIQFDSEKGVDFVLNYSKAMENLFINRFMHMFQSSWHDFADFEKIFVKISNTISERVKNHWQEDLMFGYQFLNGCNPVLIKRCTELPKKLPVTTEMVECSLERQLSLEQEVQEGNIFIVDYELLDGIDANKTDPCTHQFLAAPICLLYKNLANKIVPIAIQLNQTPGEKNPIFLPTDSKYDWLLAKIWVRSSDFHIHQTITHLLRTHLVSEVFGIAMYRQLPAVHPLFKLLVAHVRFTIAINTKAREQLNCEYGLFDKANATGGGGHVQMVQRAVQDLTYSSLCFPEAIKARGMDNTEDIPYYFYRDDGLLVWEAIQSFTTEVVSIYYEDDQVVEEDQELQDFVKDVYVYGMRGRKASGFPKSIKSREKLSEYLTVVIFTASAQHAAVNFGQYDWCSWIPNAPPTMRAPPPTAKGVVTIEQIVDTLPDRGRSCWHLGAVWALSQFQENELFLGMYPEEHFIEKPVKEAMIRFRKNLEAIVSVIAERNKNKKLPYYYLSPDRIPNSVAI
Assay: Inhibition of 5-lipoxygenase activity (20,000x g supernatant from homogenized RBL-1 cells)
Conditions: In vitro, 20,000x g supernatant from homogenized RBL-1 cells
pIC50: −log10 of the molar value.

- SMILES CODE: "CN(CCO)c1nc(N2CCCCC2)c2nc(N(C)CCO)nc(N3CCCCC3)c2n1"
  STUDY TARGET: "5-lipoxygenase (Rattus norvegicus, UniProt P12527)"
  pIC50: 6.47
- SMILES CODE: "OCCNc1nc(N2CCCCC2)c2nc(NCCO)nc(N3CCCCC3)c2n1"
  STUDY TARGET: "5-lipoxygenase (Rattus norvegicus, UniProt P12527)"
  pIC50: 5.54
- SMILES CODE: "CN(CCO)c1nc(N2CCCCCCC2)c2nc(N(C)CCO)nc(N3CCCCCCC3)c2n1"
  STUDY TARGET: "5-lipoxygenase (Rattus norvegicus, UniProt P12527)"
  pIC50: 6.04
- SMILES CODE: "CN(CCO)c1nc(N2CCCCCC2)c2nc(N(C)CCO)nc(N3CCCCCC3)c2n1"
  STUDY TARGET: "5-lipoxygenase (Rattus norvegicus, UniProt P12527)"
  pIC50: 6.52
